Documented fold changes relative to vehicle control across a set of molecules
- target: HeLa cell extract proteins (Homo sapiens)
- Construct: endogenous in cells; host or cells: HeLa cell extract
- Sequence (P53621 1-1224): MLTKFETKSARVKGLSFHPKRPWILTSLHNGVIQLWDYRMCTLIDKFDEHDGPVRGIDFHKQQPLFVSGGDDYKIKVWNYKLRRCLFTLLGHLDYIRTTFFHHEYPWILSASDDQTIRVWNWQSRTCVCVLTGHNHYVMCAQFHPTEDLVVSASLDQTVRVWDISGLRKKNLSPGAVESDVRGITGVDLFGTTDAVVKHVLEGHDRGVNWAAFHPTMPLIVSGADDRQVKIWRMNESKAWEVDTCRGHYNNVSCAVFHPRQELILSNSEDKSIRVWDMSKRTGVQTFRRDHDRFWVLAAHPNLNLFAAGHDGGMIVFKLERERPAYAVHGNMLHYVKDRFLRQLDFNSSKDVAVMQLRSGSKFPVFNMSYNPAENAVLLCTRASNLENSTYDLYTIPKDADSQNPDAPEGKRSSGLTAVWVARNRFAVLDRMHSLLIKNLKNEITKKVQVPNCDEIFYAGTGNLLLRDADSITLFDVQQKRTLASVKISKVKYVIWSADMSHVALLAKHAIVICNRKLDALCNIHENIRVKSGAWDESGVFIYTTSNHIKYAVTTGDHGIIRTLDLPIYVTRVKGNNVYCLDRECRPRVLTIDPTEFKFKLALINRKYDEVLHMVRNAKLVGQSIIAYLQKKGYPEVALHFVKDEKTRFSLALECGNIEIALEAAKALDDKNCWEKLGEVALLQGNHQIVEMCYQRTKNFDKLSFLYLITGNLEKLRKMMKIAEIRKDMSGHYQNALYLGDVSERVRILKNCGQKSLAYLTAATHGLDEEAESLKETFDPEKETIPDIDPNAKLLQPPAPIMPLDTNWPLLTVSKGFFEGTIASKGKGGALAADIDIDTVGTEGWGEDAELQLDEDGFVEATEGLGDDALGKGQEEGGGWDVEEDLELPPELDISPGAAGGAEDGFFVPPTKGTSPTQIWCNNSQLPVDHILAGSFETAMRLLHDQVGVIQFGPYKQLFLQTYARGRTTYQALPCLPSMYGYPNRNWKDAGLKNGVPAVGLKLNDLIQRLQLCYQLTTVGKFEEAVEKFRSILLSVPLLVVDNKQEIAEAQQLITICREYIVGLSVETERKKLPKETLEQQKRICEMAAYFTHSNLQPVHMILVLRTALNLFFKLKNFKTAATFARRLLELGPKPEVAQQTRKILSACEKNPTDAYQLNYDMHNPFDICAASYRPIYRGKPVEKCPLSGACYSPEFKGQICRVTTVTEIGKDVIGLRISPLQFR
- Assay type: binding
- measurement.context: protein COPA; HeLa
Form: value (number only, do not type unit).

The following molecules have reported results that may help.
# molecule, metric, result
measured = [
    ("Nc1nc2cccc(-c3ccccc3)c2n1Cc1ccc(Cl)c(Cl)c1", "fold changes relative to vehicle control", 0.93),
    ("NCCCNc1ccc(C(=O)NC(CCC(=O)O)C(=O)O)cc1 (stereo not drawn)", "fold changes relative to vehicle control", 0.89),
]

Qu. Test system HeLa cell extract proteins (Homo sapiens); read-out fold changes relative to vehicle control; what value for "CCCCCCOc1cccc(Cc2cnc(N)nc2N)c1" ?
Ans. 1.31

Qu. Test system HeLa cell extract proteins (Homo sapiens); read-out fold changes relative to vehicle control; what value for "CCCCCCOc1ccc(Cc2cnc(N)nc2N)cc1" ?
Ans. 1.07

Qu. Test system HeLa cell extract proteins (Homo sapiens); read-out fold changes relative to vehicle control; what value for Nc1nc2c(c(=O)[nH]1)N(C=O)C(CNc1ccc(C(=O)N[C@@H](CCC(=O)O)C(=O)O)cc1)CN2 (stereo partly drawn) ?
Ans. 0.81

Qu. Test system HeLa cell extract proteins (Homo sapiens); read-out fold changes relative to vehicle control; what value for NCCOCCOCC(=O)Nc1nc2ncc(CNc3ccc(C(=O)NC(CCC(=O)O)C(=O)O)cc3)nc2c(=O)[nH]1 (stereo not drawn) ?
Ans. 1
